Biological target: human RXFP1 (Homo sapiens)
Test: RXFP1 cyclic adenosine monophosphate (cAMP) assay, hRXFP1 HEK293
Conditions: HEK293 cells stably expressing human RXFP1; 30 min at room temperature; HTRF cAMP
pEC50: −log10 of the molar value.
Property name: pEC50

Example entries and their recorded answers appear below.
Tell me the measured pEC50 of COc1ccc(C2=NOC3CS(=O)(=O)CC23)cc1C(=O)Nc1cc2c(cc1C(=O)Nc1ccc(F)c(C(F)(F)F)c1)OC(F)(F)O2 (stereo not drawn) [Example 65] , please.
6.55

What about this compound? COc1ccc(C2CCCN(C3COC3)CC2)cc1C(=O)Nc1cc2c(cc1C(=O)Nc1ccc(F)c(C(F)(F)F)c1)OC(F)(F)O2 (stereo not drawn)
6.06

Continue with `COc1ccc(-c2cc(C(=O)O)ccc2F)cc1C(=O)Nc1cc2c(cc1C(=O)Nc1ccc(F)c(C(F)(F)F)c1)OC(F)(F)O2`
6.90

And `COc1ccc(S(=O)(=O)N2CCOC[C@@H]2CO)cc1C(=O)Nc1cc2nc(C)sc2cc1C(=O)Nc1ccc(F)c(C(F)(F)F)c1` ?
5.85

(I) COc1ccc(CN2CC3(C2)CS(=O)(=O)C3)cc1C(=O)Nc1cc2c(cc1C(=O)Nc1ccc(F)c(C(F)(F)F)c1)OC(F)(F)O2
(II) COc1ccc(-c2nc3c(s2)CNCC3)cc1C(=O)Nc1cc2c(cc1C(=O)Nc1ccc(F)c(C(F)(F)F)c1)OC(F)(F)O2
Lab log: flag the item ( I or II ) with the smaller pEC50 figure. Refer to your chosen item by its label in the answer.
II
(II: 6.17, I: 6.56)

----------
Biological target: human RXFP1 (Homo sapiens, UniProt Q9HBX9)
Sequence (Q9HBX9 whole entry): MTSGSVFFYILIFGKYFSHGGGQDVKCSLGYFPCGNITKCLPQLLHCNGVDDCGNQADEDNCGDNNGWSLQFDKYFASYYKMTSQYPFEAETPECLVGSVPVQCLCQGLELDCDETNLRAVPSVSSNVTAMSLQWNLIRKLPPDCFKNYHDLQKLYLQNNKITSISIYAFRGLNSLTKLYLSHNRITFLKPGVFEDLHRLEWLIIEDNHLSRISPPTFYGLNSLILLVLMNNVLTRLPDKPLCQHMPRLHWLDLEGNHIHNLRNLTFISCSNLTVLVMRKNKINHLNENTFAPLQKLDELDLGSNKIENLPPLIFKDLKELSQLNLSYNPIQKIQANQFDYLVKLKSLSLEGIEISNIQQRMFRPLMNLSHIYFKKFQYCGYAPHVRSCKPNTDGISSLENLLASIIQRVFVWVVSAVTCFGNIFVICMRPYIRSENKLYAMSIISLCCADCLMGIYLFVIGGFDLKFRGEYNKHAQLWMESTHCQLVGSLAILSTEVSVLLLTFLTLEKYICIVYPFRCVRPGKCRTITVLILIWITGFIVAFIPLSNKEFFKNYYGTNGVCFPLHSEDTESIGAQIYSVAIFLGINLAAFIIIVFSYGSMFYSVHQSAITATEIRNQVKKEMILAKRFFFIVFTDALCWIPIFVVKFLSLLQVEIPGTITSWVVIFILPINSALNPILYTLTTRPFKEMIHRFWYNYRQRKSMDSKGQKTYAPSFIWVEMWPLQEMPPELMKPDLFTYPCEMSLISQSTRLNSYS
Assay: RXFP1 cyclic adenosine monophosphate (cAMP) assay, hRXFP1 HEK293
Conditions: HEK293 cells stably expressing human RXFP1; 30 min at room temperature; HTRF cAMP
Property name: EC50 (nM)

Short answer please: EC50, human RXFP1 (Homo sapiens, UniProt Q9HBX9), entry COc1ccc(C2CCCN(CC(N)=O)CC2)cc1C(=O)Nc1cc2c(cc1C(=O)Nc1ccc(F)c(C(F)(F)F)c1)OC(F)(F)O2 (stereo not drawn)
339

COc1ccc(C2=NOC3CC(O)CC23)cc1C(=O)Nc1cc2nc(C)sc2cc1C(=O)Nc1ccc(F)c(C(F)(F)F)c1 (single isomer, unassigned) [Example 8] ?
40

Could you do the same for COc1ccc(C2=NOC3CC(COP(=O)(O)O)CC23)cc1C(=O)Nc1cc2nc(C)sc2cc1C(=O)Nc1ccc(F)c(C(F)(F)F)c1 (stereo not drawn) , please?
110

(P) COc1ccc(C2=NOC3(COC(=O)C3)C2)cc1C(=O)Nc1cc2c(cc1C(=O)Nc1ccc(F)c(C(F)(F)F)c1)OC(F)(F)O2 (stereo not drawn)
(Q) COc1ccc(-c2cc([C@H](OC(=O)NC3CCC3)C(F)(F)F)ccc2F)cc1C(=O)Nc1cc2sc(C)nc2cc1C(=O)Nc1ccc(F)c(C(F)(F)F)c1
Endpoint returns the identifier whose EC50 is numerically larger, either P or Q . // return label of chosen record
P

(1) COc1ccc(C2=NOC3CC(NC(=O)CO)CC23)cc1C(=O)Nc1cc2c(cc1C(=O)Nc1ccc(F)c(C(F)(F)F)c1)OC(F)(F)O2 (stereo not drawn)
(2) COc1ccc(C2=NOC(C(C)(C)O)C2)cc1C(=O)Nc1cc2nc(C)sc2cc1C(=O)Nc1ccc(F)c(C(F)(F)F)c1 (stereo not drawn)
Quick check, higher EC50 between 1 and 2 ? Lab log: write the label of the selected item as the result.
2
(2: 160 nM, 1: 21 nM)

(A) COc1ccc(C2CCN(C(=O)C(C)(C)O)C2)cc1C(=O)Nc1cc2c(cc1C(=O)Nc1ccc(F)c(C(F)(F)F)c1)OC(F)(F)O2 (single isomer, unassigned) [Example 55]
(B) COc1ccc(C#CC(C)(C)O)cc1C(=O)Nc1cc2c(C)noc2cc1C(=O)Nc1ccc(F)c(C(F)(F)F)c1
Between A and B , which one has the lower reported EC50 value? Please indicate the selected item by its label.
A
(A: 322 nM, B: 1340 nM)

(a) COc1ccc(-c2cncc(S(=O)(=O)NC(C)(C)C)c2)cc1C(=O)Nc1cc2c(cc1C(=O)Nc1ccc(F)c(C(F)(F)F)c1)OC(F)(F)O2
(b) COc1ccc(C2=NOC3CS(=O)(=O)CC23)cc1C(=O)Nc1cc2nc(C)sc2cc1C(=O)Nc1ccc(F)c(C(F)(F)F)c1 (stereo not drawn)
(c) COc1ccc(C2=NOC3(CCNCC3)C2)cc1C(=O)Nc1cc2c(cc1C(=O)Nc1ccc(F)c(C(F)(F)F)c1)OC(F)(F)O2
(d) COc1ccc(C2=NOC3CC(O)CC23)cc1C(=O)Nc1cc2nc(C)sc2cc1C(=O)Nc1ccc(F)c(C(F)(F)F)c1 (single isomer, unassigned) [Example 27]
(e) COc1ccc(N2CC(CN)CC2=O)cc1C(=O)Nc1cc2nc(C)sc2cc1C(=O)Nc1ccc(F)c(C(F)(F)F)c1 (stereo not drawn)
# desc sort on EC50 across 5 compounds Reply with the item labels sorted in the order that was asked for.
e, d, c, a, b
(e: 4100 nM, d: 2200 nM, c: 309 nM, a: 132 nM, b: 28 nM)

(I) COc1ccc(C2=NOC3C(O)CC(O)C23)cc1C(=O)Nc1cc2nc(C)sc2cc1C(=O)Nc1ccc(F)c(C(F)(F)F)c1 (stereo not drawn)
(II) COc1ccc(-c2cnc3n2CCN(CC(N)=O)C3)cc1C(=O)Nc1cc2c(cc1C(=O)Nc1ccc(F)c(C(F)(F)F)c1)OC(F)(F)O2
(III) COc1ccc(-c2cnc3n2CCN(CCO)C3)cc1C(=O)Nc1cc2c(cc1C(=O)Nc1ccc(F)c(C(F)(F)F)c1)OC(F)(F)O2
(IV) COc1ccc(C2CC3(CNC3)C2)cc1C(=O)Nc1cc2c(cc1C(=O)Nc1ccc(F)c(C(F)(F)F)c1)OC(F)(F)O2
Ascending sort, EC50. Give the labels in the order specified.
I, II, III, IV

(1) COc1ccc(C2=NOC3(CCN(CC(N)=O)CC3)C2)cc1C(=O)Nc1cc2c(cc1C(=O)Nc1ccc(F)c(C(F)(F)F)c1)OC(F)(F)O2
(2) O=C(Nc1cc2c(cc1C(=O)Nc1ccc(F)c(C(F)(F)F)c1)OC(F)(F)O2)c1csc(C2=NOC3COCC23)n1 (single isomer, unassigned)
In the pair 1 and 2 , the larger recorded EC50 belongs to which? // respond with label for picked entry
2

(a) COc1ccc(-c2cc(C(C)(C)O)on2)cc1C(=O)Nc1cc2c(cc1C(=O)Nc1ccc(F)c(C(F)(F)F)c1)OC(F)(F)O2
(b) COc1ccc(C2=NOC(C(C)(C)O)C2)cc1C(=O)Nc1cc2c(cc1C(=O)Nc1ccc(F)c(C(F)(F)F)c1)OC(F)(F)O2 (single isomer, unassigned) [Example 76]
(c) COc1ccc(C2=NOC3CC(CO)CC23)cc1C(=O)Nc1cc2c(cc1C(=O)Nc1ccc(F)c(C(F)(F)F)c1)OC(F)(F)O2 (stereo not drawn) [Example 98]
List by increasing EC50. // list labels; follow requested order
c, a, b
